- System Under Test: Estrogen receptor (Bos taurus) (UniProt Q9XSB5+P49884)
- Measurement Context: Uterus; Cytosol
- Description: Relative binding affinity against estrogen receptor in calf uterus cytosol using [3H]E2 as radioligand, incubated at 5 hours at 25 degree Centigrade.
Please assign a class to every record based on measured RBA2, with ranges low bin (below 0.4), mid bin (0.4 to below 20), high bin (20 or more)

Known results for molecules:
query_smiles=CCN(CC)CCOc1ccc(/C(=C(/C#N)c2ccccc2)c2ccc(O)cc2)cc1 system_under_test="Estrogen receptor (Bos taurus) (UniProt Q9XSB5+P49884)" class_assignment="high bin"
query_smiles=CCN(CC)CCOc1ccc(C(C#N)=C(c2ccccc2)c2ccccc2)cc1 system_under_test="Estrogen receptor (Bos taurus) (UniProt Q9XSB5+P49884)" class_assignment="low bin"
query_smiles=Oc1ccc(C(=C2CCCCC2)c2ccc(O)cc2)cc1 system_under_test="Estrogen receptor (Bos taurus) (UniProt Q9XSB5+P49884)" class_assignment="mid bin"

Dear colleague, I would appreciate it if you could identify the bin for `COc1ccc(/C(=C(/C#N)c2ccccc2)c2ccc(O)cc2)cc1` and reply at your convenience.
mid bin

Dear colleague, I would appreciate it if you could identify the bin for `COc1ccc(/C(=C(\C#N)c2ccccc2)c2ccc(O)cc2)cc1` and reply at your convenience.
mid bin

Value source: ChEMBL document CHEMBL1124584
